Molecular target: HLA-A*0206 (human)
Experiment: competition with 125I-labelled probe peptide for purified HLA, gel filtration
Measured parameter: IC50 (nM)

binder="YLIMVKBWMV (B at position 7 is alpha-amino butyric acid (in place of cysteine), also called YLIMVKBWMV) [Her2/neu.952L2B7V10]" value=11
binder="YLIMVKCWMV [Her2/neu.952L2V10]" value=18
binder="VLIQRNPQV [Her2/neu.153V9]" value=385
binder="SLISAVVGV [Her2/neu.653.L2V9]" value=20
